system: HCT-15 (colon); assay: SRB cytotoxicity, HCT-15 colon cells; assay type: cell-based, human; conditions: Homo sapiens, HCT-15, read-out: IC50 HCT-15
readout type: IC50 (µM)
Supply the numeric figure in µM, leaving out any unit text.

Find the measured IC50: item COc1cc([C@@H]2c3cc4c(cc3[C@@H](O[C@@H]3O[C@@H]5CO[C@@H](C)O[C@H]5[C@H](O)[C@H]3O)[C@H]3COC(=O)[C@H]23)OCO4)cc(OC)c1O [etoposide, reference compound] , target or system HCT-15 (colon).
4.8

----------
assay: SRB cytotoxicity, K562 leukemia cells; format: cell-based, human; settings: human, K562 leukemia cells
Exercise: for every item that follows, state its recorded inhibition at 50 μM.
Supply the numeric figure in %, leaving out any unit text.

Give the measured inhibition at 50 μM of CC(C)=CCC[C@@H](C)[C@@H]1CC[C@]2(C)C3=C(CC[C@@]12C)[C@@]1(C)CC[C@H](O)C(C)(C)[C@@H]1CC3 [euphol (2), eupha-8,24-dien-3β-ol] .
26.9

Do the same for C=C(C)[C@@H]1CC[C@]2(C)CC[C@]3(C)[C@H](CC[C@@H]4[C@@]5(C)CC[C@H](O)C(C)(C)[C@@H]5CC[C@]43C)[C@@H]12 [lupeol (5), lupeol] please
48.8
